biological target: human recombinant dopamine D1 receptor (Homo sapiens, UniProt P21728); assay: Dopamine D1 receptor binding, [3H]SCH 23390 displacement
Sequence (P21728 whole entry): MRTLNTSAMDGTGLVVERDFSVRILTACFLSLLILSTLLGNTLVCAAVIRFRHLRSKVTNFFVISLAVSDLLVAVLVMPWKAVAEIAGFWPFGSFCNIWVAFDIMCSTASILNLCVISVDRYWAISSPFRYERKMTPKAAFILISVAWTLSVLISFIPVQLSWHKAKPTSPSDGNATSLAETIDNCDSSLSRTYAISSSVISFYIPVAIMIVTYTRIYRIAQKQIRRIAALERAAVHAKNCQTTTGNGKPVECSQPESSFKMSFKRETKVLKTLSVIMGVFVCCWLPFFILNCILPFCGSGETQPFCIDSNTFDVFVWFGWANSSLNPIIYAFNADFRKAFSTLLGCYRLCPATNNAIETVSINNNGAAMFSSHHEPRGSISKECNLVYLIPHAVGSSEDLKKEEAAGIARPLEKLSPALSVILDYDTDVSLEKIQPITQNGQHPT
Observable: D1(Ki or (% Inhibition)): % inhibition

{"Compound": "O=C1CN2c3c(cccc3[C@@H]3CN(CCCOc4ccc(F)cc4)CC[C@@H]32)N1 [compound 5]", "Observable": "D1(Ki or (% Inhibition)): % inhibition", "Endpoint value": "50 (44%)"}
{"Compound": "O=C1CN2c3c(cccc3[C@@H]3CN(CCCOc4ccc(F)c(F)c4)CC[C@@H]32)N1 [compound 39]", "Observable": "D1(Ki or (% Inhibition)): % inhibition", "Endpoint value": "232 (15%)"}
{"Compound": "O=C1CN2c3c(cccc3[C@@H]3CN(CCCOc4ccc(F)cc4)CC[C@H]32)N1 (racemic) [compound 20]", "Observable": "D1(Ki or (% Inhibition)): % inhibition", "Endpoint value": "5.6 (79%)"}
{"Compound": "O=C1CN2c3c(cccc3[C@H]3CN(CCCOc4ccc(F)cc4)CC[C@H]32)N1 [compound 54]", "Observable": "D1(Ki or (% Inhibition)): % inhibition", "Endpoint value": "75 (50%)"}

====

biological target: human full-length recombinant serotonin 5-HT2A receptors (Homo sapiens, UniProt P28223); construct: human full-length recombinant serotonin 5-HT2A receptors expressed in HEK-293E cells; test: biochemical; type: binding
Sequence (P28223 whole entry): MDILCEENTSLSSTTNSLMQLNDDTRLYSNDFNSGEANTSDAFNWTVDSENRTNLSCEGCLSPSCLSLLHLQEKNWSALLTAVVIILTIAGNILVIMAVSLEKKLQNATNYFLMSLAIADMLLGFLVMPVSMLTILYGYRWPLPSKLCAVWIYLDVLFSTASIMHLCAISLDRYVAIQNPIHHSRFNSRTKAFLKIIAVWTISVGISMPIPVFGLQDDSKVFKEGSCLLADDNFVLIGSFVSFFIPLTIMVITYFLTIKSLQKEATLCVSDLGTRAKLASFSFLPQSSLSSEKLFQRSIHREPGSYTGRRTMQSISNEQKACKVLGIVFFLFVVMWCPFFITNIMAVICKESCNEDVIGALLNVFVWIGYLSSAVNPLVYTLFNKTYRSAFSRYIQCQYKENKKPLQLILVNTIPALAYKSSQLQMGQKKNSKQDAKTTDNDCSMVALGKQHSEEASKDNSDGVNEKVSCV
As shown below, each of these compounds has a reported Ki value.

{"Molecule": "O=C1CN2c3c(cccc3[C@@H]3CN(CCCc4n[nH]c5cc(F)ccc45)CC[C@@H]32)N1", "Ki (nM)": 2.6}
{"Molecule": "O=C1CN2c3c(cccc3[C@@H]3CN(CCCOc4ccc(F)c(F)c4)CC[C@@H]32)N1", "Ki (nM)": 16.1}
{"Molecule": "O=C1CN2c3c(cccc3[C@@H]3CN(CCCOc4ccccc4)CC[C@@H]32)N1", "Ki (nM)": 2.8}
{"Molecule": "O=C1CN2c3c(cccc3[C@@H]3CN(CCCc4noc5cc(F)ccc45)CC[C@@H]32)N1", "Ki (nM)": 3.1}

====

Here, each record is paired with measured inhibition at 0.1 µM data.
target: human full-length recombinant serotonin 5-HT2A receptors (Homo sapiens); construct: human full-length recombinant serotonin 5-HT2A receptors expressed in HEK-293E cells; assay: biochemical; assay type: binding; conditions: read-out: 5-HT2A % inhibition

{"Molecule": "O=C1CN2c3c(cccc3[C@@H]3CN(CCCOc4ccc5c(c4)OCO5)CC[C@@H]32)N1", "Test target": "human full-length recombinant serotonin 5-HT2A receptors (Homo sapiens)", "inhibition at 0.1 µM": "< 0%"}
{"Molecule": "COc1ccc(OCCCN2CC[C@H]3[C@@H](C2)c2cccc4c2N3CC(=O)N4)cc1", "Test target": "human full-length recombinant serotonin 5-HT2A receptors (Homo sapiens)", "inhibition at 0.1 µM": "< 0%"}
{"Molecule": "NC(=O)c1cc(F)ccc1OCCCN1CC[C@H]2[C@@H](C1)c1cccc3c1N2CC(=O)N3", "Test target": "human full-length recombinant serotonin 5-HT2A receptors (Homo sapiens)", "inhibition at 0.1 µM": "14%"}
{"Molecule": "O=C1CN2c3c(cccc3[C@@H]3CN(CCCOc4ccc(F)c(F)c4)CC[C@@H]32)N1", "Test target": "human full-length recombinant serotonin 5-HT2A receptors (Homo sapiens)", "inhibition at 0.1 µM": "71%"}
{"Molecule": "O=C1CN2c3c(cccc3[C@@H]3CN(CCCOc4ccc(O)cc4)CC[C@@H]32)N1", "Test target": "human full-length recombinant serotonin 5-HT2A receptors (Homo sapiens)", "inhibition at 0.1 µM": "77%"}
{"Molecule": "O=C1CN2c3c(cccc3[C@@H]3CN(CCCOc4ccc(Br)cc4)CC[C@@H]32)N1", "Test target": "human full-length recombinant serotonin 5-HT2A receptors (Homo sapiens)", "inhibition at 0.1 µM": "70%"}
